B1: JUNB (parent)
chain: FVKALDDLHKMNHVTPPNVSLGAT

- Variants of: B1
- measurement.description: protein stability index of a GFP-peptide fusion (GPS, HEK-293T) (PSI 1-6); higher = more stable;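 note: lentivirally expressed fusions sorted by FACS into six bins by GFP to DsRed ratio, PSI derived from sequencing read proportions per bin multiplied by bin number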
- test.context: c terminus: a fixed tail appended
Entries and their protein stability index values follow.

mutation.name	protein stability index
D6W	3.45
P17T	1.62
T15F	1.69
L21N	1.89
V2Q	3.18
S20Q	1.7
N18C	1.69
A23H	1.71
N18A	1.32
T24A	1.51
M11A	2.29
N18V	1.63
A4N	1.66
V2M	2.7
N12K	1.55
H9A	1.86
T24K	1.75
T15G	2.04
D6K	2.39
F1C	2.61
L5D	2.72
T24I	1.92
